Attribution: paper PMC4172726

Tested on: MCF-10A cells
measurement_protocol: Cytotoxicity concentration-response assay (CellTiter GLO, cellular ATP) in MCF-10A cells cultured in 2D or 3D
Format: cell-based, human
study_conditions: Homo sapiens, MCF-10A, 48 h, MCF-10A 3D spheroid, 48 h treatment; read-out: EC50 (concentration at which the compound reduces cell viability by 50%)
quantity_kind: EC50

CS(=O)(=O)CCNCc1ccc(-c2ccc3ncnc(Nc4ccc(OCc5cccc(F)c5)c(Cl)c4)c3c2)o1 [lapatinib]: > 5 µM

# evaluate next
Form field: reported EC50 of CCC1=C[C@@H]2CN(C1)Cc1c([nH]c3ccccc13)[C@@](C(=O)OC)(c1cc3c(cc1OC)N(C)[C@H]1[C@@](O)(C(=O)OC)[C@H](OC(C)=O)[C@]4(CC)C=CCN5CC[C@]31[C@@H]54)C2 [vinorelbine]
> 100 µM
